assay: Plasma concentration of compound of Formula I in the PET occupancy study; assay type: in vivo; details: human, single oral dose 5 mg, approx. 6 h, healthy subjects

# item-smiles, concentration at 6 h (ng/mL)
records = [
    ("CC(=O)Nc1nc(F)c(CN2CC[C@H](OCc3noc(C)n3)C[C@@H]2C)s1", 25.3),
]

* * *

test: Single ascending dose study in healthy subjects, pharmacokinetics of compound of Formula I; format: in vivo, human; conditions: human, plasma, mean, single oral dose 2 mg, 6 h
observed-property: concentration at 6 h (ng/mL)

# item-smiles, reported
records = [
    ("CC(=O)Nc1nc(F)c(CN2CC[C@H](OCc3noc(C)n3)C[C@@H]2C)s1", 8.75),
]

These measurements were taken from patent US20230338349A1.
